B1: CPEB3 Ribozyme (parent)
chain: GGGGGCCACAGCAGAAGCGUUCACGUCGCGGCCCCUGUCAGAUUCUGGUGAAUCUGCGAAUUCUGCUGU

# Variants of: B1
# Method: self-cleavage, relative activity (ratio to wild type); higher = more cleavage; co-transcriptional
Readout Label: self-cleavage
Answer with a bare number; do not write a unit.

[[record]]
ordered_residues = "GGGGGCCACAGAAGAAGCGUUCACGUCGCGGCCCCUGUCAGAUUCUCGUGAAUCUGCGAAUUCUGCUGU [C12A G47C]"
value_measured = 0.837


Request: Any idea what self-cleavage was measured for GGGGGCCACAGCAGAAGCGUUUACGUCGCGGCCCCUGUCAGAUUCUGGUGAAUCUGCGCAUUCUGCUGU [C22U A59C] ?
Result: 0.188

Request: Data request, read-out self-cleavage, for GGGGGCCACAGCAGAAGCGUUCACGUCGCGGCCUCUGUCAGAUUCUGGAGAAUCUGCGAAUUCUGCUGU [C34U U49A]
Result: 0.996

Request: Please look up its self-cleavage: GGGGGCCACAGCAGAAGCGUUCACGUCGCGGCUCCUGUCAGAUUCUGGUGAAUCUUCGAAUUCUGCUGU [C33U G56U]
Result: 0.963

Request: Recorded self-cleavage for GGGGGCCACAGCACAAGCAUUCACGUCGCGGCCCCUGUCAGAUUCUGGUGAAUCUGCGAAUUCUGCUGU [G14C G19A] , please?
Result: 0.136

Request: What self-cleavage value was documented for this variant, GGGGGCCACAGCAGAUGCGUUCACGUCGCGGCCCGUGUCAGAUUCUGGUGAAUCUGCGAAUUCUGCUGU [A16U C35G] ?
Result: 0.213

Request: Recorded self-cleavage for GGGGGCCACAGCAGAAGCGUUCACCUCGCGGCCCCUGUCAGAUUCGGGUGAAUCUGCGAAUUCUGCUGU [G25C U46G] , please?
Result: 0.192

Request: Any idea what self-cleavage was measured for GGGGGCCACAGAAGAAGCGUUCACGUCGCGGGCCCUGUCAGAUUCUGGUGAAUCUGCGAAUUCUGCUGU [C12A C32G] ?
Result: 0.118

Request: // returns reported self-cleavage for input GGGGGCCACAGCAGAAGCGUUCACGUCGCGGCCCCUGUCAGAGUCUGGUGAAUCUGCCAAUUCUGCUGU [U43G G58C]
Result: 0.959

Request: Endpoint output: self-cleavage of UGGGGCCACAGCAGAAGCGUUCACGUCGCGGCCCCUGUCAGAUUCUGGUGAAUCUGCGAAUUCUGCGGU [G1U U67G] . Value?
Result: 0.204

Request: // lookup self-cleavage for GGGGGCCACAGCAGAAGCGUUCACGUCGCGGCCCCUGUCAGAUUCAGGUGAAUCUGCGACUUCUGCUGU [U46A A60C]
Result: 0.346
